target_or_system: Proteasome subunit beta (Trypanosoma cruzi)
experiment_notes: Trypanosoma cruzi proteasome chymotrypsin-like activity (TcProtChymo) assay.
Type: functional
Parameters: scale not given: in the data most compounds retested in dose-response had high values
measurement_parameters: 9.37 µM
quantity_name: Percent Effect (%)
The figure you give is taken to be in %; do not add the unit.

Query: I have this molecule here, `c1cncc(OC[C@]23COC[C@H]2CN(Cc2cccs2)C3)c1` , and I need its recorded Percent Effect.
Result: 6.85

Query: Also `O[C@@]1(c2ccccn2)CC[C@H]2CN(Cc3cccc(Cl)c3Cl)C[C@H]21` ?
Result: -0.468

Query: Also `O=C([C@H]1C[C@H]2OCC[C@H]2N(Cc2cccnc2)C1)N1CCCO1` ?
Result: 27.7

Query: Also O=C(Cc1ccc(F)cc1)N1CCN(CC(O)C2CC2)CC1 (stereo unspecified) ?
Result: 6.74

Query: Also CN1CCCC(c2n[nH]c3ncccc23)C1 (stereo unspecified) ?
Result: 5.93

Query: Also `CO[C@H]1CCN(Cc2ccccn2)[C@@H]2CN(Cc3ccco3)C[C@H]12` ?
Result: 17.7

----------
target_or_system: Arginase-2, mitochondrial (Homo sapiens)
Sequence (whole entry): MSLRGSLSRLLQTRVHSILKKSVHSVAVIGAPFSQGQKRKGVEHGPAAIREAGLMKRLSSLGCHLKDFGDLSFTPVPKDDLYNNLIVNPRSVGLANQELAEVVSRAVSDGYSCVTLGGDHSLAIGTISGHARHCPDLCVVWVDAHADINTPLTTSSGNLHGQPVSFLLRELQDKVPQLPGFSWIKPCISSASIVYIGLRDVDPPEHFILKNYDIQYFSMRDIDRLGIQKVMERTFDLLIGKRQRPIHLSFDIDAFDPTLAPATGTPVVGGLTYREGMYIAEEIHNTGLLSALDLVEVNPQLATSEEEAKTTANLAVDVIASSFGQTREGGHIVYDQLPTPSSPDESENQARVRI
experiment_notes: in vitro enzyme assay to detect the production of urea directly proportional to the activity of Arginase II
Type: functional
Design: scale not given: in the data most compounds retested in dose-response had high values
measurement_parameters: 33.3 µM
quantity_name: Percent Effect (%)
The figure you give is taken to be in %; do not add the unit.

Query: I have this compound here, `O=C(NCc1ccccn1)[C@]12COC[C@H]1CN(C1CCC1)C2` , and I need its recorded Percent Effect.
Result: 85.8

Query: Also `Cc1cccc(CO[C@@H]2CC[C@H]3[C@H]2OCCN3Cc2ccsc2)n1` ?
Result: -38.9

Query: Also `O=C(Nc1cccnc1)[C@H]1CN(Cc2nccs2)C[C@H]2OCC[C@@H]12` ?
Result: -0.233

Query: Also `O=C(c1ccsc1)N1CCN2C[C@H](OCc3cccnc3)C[C@H]2C1` ?
Result: 3.96

Query: Also `c1ccc(OC[C@]23COC[C@H]2CN(Cc2ccoc2)C3)nc1` ?
Result: -57.9

Query: Also `O=C1[C@H]2CN(Cc3ccoc3)C[C@H]2CN1Cc1ccncc1` ?
Result: 4.14

Query: Also O=C(C1CC(=O)N(c2ccccc2Br)C1)N1CCC2(CC1)OCCO2 (stereo not given) ?
Result: 2.6

Query: Also `Cc1noc([C@@H]2C[C@H]3CN(Cc4cc(C)on4)C[C@H]3O2)n1` ?
Result: 9.68

Query: Also `O=C(c1cccnc1)N1C[C@@H]2CC[C@H](C1)N(Cc1ncc[nH]1)C2` ?
Result: 5.91

Query: Also CCN1CCC2(CCC1=O)CN(c1ccnc(SC)n1)CCN2C (stereo not given) ?
Result: 6.25

----------
target_or_system: Aspartate--tRNA(Asp/Asn) ligase (Mycobacterium tuberculosis (strain ATCC 25618 / H37Rv)) (UniProt P9WFW3)
Sequence (P9WFW3 whole entry): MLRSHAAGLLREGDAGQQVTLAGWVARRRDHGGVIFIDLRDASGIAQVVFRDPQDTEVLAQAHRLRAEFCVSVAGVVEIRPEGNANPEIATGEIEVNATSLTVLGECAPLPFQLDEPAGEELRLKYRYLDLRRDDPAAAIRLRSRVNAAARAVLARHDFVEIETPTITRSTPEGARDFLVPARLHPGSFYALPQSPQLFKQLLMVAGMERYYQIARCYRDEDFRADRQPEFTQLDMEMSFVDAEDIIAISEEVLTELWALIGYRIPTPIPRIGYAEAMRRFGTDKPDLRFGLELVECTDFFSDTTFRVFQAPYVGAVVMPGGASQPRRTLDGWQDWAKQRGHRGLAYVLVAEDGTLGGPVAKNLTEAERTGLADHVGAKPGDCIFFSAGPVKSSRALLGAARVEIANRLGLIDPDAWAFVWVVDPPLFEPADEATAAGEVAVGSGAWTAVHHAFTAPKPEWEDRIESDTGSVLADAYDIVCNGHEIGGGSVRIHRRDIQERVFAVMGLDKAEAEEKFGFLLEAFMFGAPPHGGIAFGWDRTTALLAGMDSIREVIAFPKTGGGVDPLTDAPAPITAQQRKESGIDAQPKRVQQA
experiment_notes: Assay for Asp RNA synthetase-1 from Mycobacterium tuberculosis
Assay type: functional
Set-up: scale not given: in the data most compounds retested in dose-response had high values
measurement_parameters: 30 µM
quantity_name: Percent Effect (%)
The figure you give is taken to be in %; do not add the unit.

Query: I have this compound here, `CC(C)Sc1ncccc1C(=O)NCc1ccc(CS(C)(=O)=O)cc1` , and I need its recorded Percent Effect.
Result: -3.16

Query: Also Cc1noc(C)c1CNC(=O)N1CCC(C(O)c2ccccc2)CC1 (configuration not stated) ?
Result: -2.1

Query: Also Cc1nc(CN2CCOC(c3nc(C(C)C)n[nH]3)C2)oc1C (configuration not stated) ?
Result: 0.999

Query: Also NC(=O)C1CN(Cc2c[nH]cn2)CCN(C2CCOCC2)C1 (configuration not stated) ?
Result: -0.938

Query: Also COC(=O)CC(c1ccccc1)c1oc(C)cc(=O)c1O (configuration not stated) ?
Result: -2.11

Query: Also CCOCC(O)CN1CCN(C(=O)CC(C)C)CC1 (configuration not stated) ?
Result: -2.19

Query: Also Cc1nnc(N2CCCC3(CN(Cc4ccncc4)CCO3)C2)o1 (configuration not stated) ?
Result: -2.96

Query: Also CCOCC1CN(C(=O)C2=CCCC2)Cc2cnn(CC)c21 (configuration not stated) ?
Result: -0.107

Query: Also Cc1ccc(-c2cc(C(=O)NC(C)C(=O)N3CCCCC3)on2)cc1 (configuration not stated) ?
Result: 2.34

Query: Also `O=c1c(-c2ccnc(NC3CCOCC3)n2)cnc2sc(Cl)cn12` ?
Result: -3.81

Query: Also `COc1cc(CNCc2c(C(C)C)nn(C)c2N(C)C)ccn1` ?
Result: 0.522

Query: Also `CCc1c(C)sc(NC(=O)CN2CCN(CC)CC2)c1C(=O)OC` ?
Result: -1.36

Query: Also COC(=O)c1ccc(N2CCN(CCC(=O)NC(N)=O)C(C)C2)cc1 (configuration not stated) ?
Result: 3.04

Query: Also `Cc1ccc([C@@H]2CN(C(=O)c3csc(C)n3)C[C@H]2NC(=O)C2CC2)cc1` ?
Result: -3.36

Query: Also `NCc1cnn(-c2ccccc2C(=O)NCCCn2ccnc2)c1` ?
Result: 0.581

Query: Also O=C(c1cnco1)N1CCCC(Cc2nccs2)C1 (configuration not stated) ?
Result: 1.57

Query: Also `COc1cc(CCC(=O)NC2CC2)ccc1OCC(F)(F)F` ?
Result: 1.01

Query: Also O=C1CC(c2ccncc2)c2c(c(C(=O)O)cn2-c2ccc(F)cc2)N1 (configuration not stated) ?
Result: 2.32

Query: Also O=C1CSC(c2ccc(O)c(Cl)c2)c2c(n(C3CCOCC3)[nH]c2=O)N1 (configuration not stated) ?
Result: -0.726

Query: Also Cc1n[nH]c2c1C(c1ccsc1)SCC(=O)N2 (configuration not stated) ?
Result: 6.57

Query: Also O=C1CC(c2ccc(C(=O)O)cc2)c2ncn(-c3ccccc3)c2N1 (configuration not stated) ?
Result: 19.5

Query: Also `COCc1nn(C(C)C)c2c1CCN(Cc1cccs1)C2` ?
Result: -2.9

Query: Also COCCOc1ccc(NC(=O)N2CCCC2c2ccncc2)cn1 (configuration not stated) ?
Result: 0

Query: Also `Cn1cc(CN2CCN(Cc3nccn3C)CC2)cn1` ?
Result: -2.81

Query: Also Cc1nc(C2CCCN2Cc2nc(C)c(C)o2)no1 (configuration not stated) ?
Result: -0.728

Query: Also `CN1CCN(c2ncnc3c2c(C(=O)NC2CC2)c2ccccn23)CC1` ?
Result: 5.32

Query: Also `O=C(CCc1c[nH]cn1)N1CC[C@@H](c2ccc3ccccc3c2)[C@H](O)C1` ?
Result: -0.632

Query: Also `O=C(CCc1cscn1)NS(=O)(=O)c1ccc2c(c1)CCC2` ?
Result: -2.03

Query: Also `Cc1ccc(CNC(=O)Cn2ncc3c2c(C)nn3C)cc1` ?
Result: -3.46

Query: Also Cc1nc(C)n(CC2CCCCN2CC(=O)Nc2nncs2)n1 (configuration not stated) ?
Result: -3.83

Query: Also CCCc1noc(CCC(=O)N2CCCC2c2noc(C3CC3)n2)n1 (configuration not stated) ?
Result: -2.66

Query: Also CCc1nc(C2CCCN2Cc2nc3ccccc3o2)no1 (configuration not stated) ?
Result: -0.404

Query: Also `COc1cc(N2C[C@@H]3COC[C@]3(COCc3cccc(C)n3)C2)ncn1` ?
Result: -0.107

Query: Also `CCn1ccnc1CN1CCCN(C(=O)Cc2ccc(C)nc2)CC1` ?
Result: 1.82

Query: Also COc1cccc(CCNC(=O)CN2CCN(C)CC2C)c1 (configuration not stated) ?
Result: 0.495

Query: Also `CC(=O)NCCNC(=O)c1sc(-c2ccc(C)cc2C)nc1C` ?
Result: 3

Query: Also `CNC(=O)c1cc2c(nc1NCC(C)C)CCN(S(=O)(=O)C1CC1)CC2` ?
Result: -2.58

Query: Also `CC(=O)N1CC(Cc2nccc3ccn(C)c23)C1` ?
Result: 1.31

Query: Also CN(C)C(=O)Cc1nc(CN2CCCCC2Cn2cccn2)cs1 (configuration not stated) ?
Result: 2.64

Query: Also `CCn1nc2c(cc1=O)CN(Cc1nc(N)c3ccccc3n1)CC2` ?
Result: 1.61

Query: Also CS(=O)(=O)N1Cc2nccn2CC(Cn2ncccc2=O)C1 (configuration not stated) ?
Result: 1.17

Query: Also `CN(C)C(=O)CSc1nnc(CCNC(=O)OC(C)(C)C)o1` ?
Result: 2.93

Query: Also `CC(C)NS(=O)(=O)c1cc(C(=O)O)cc(-c2ccccc2CN(C)C)c1` ?
Result: 1.25

Query: Also CCCN1CCN(Cc2nccn2CC)C(C)C1 (configuration not stated) ?
Result: 1.06

Query: Also `COCCN1CCN(Cc2ccc(F)c(C)c2)[C@H]2CS(=O)(=O)C[C@H]21` ?
Result: -3.12

Query: Also `Cc1ccsc1C(=O)N1C[C@@H]2CN(Cc3ccoc3)CCO[C@@H]2C1` ?
Result: -1.39

Query: Also `O=C(Cn1cccn1)NCC1(c2ccccc2)CC1` ?
Result: -2.68
